# Vd annotations
- experiment-summary: Volume of distribution at steady state in iv dosed Sprague-Dawley rat administered as 30 mins infusion
- Type: ADME, organism-based
- test-parameters: in vivo, read-out: Vdss
The reply should be a number in L/kg, with the unit left off.

Examples from the recorded data:
>>> df
                              sample_smiles  endpoint_unit  reported_measurement
0  Cc1cc(-c2nnc(N[C@H]3C[C@](O)(C(F)F)C3)o2)nc2c(C(C)(C)C)cc(NCC(F)(F)F)cc12           L/kg                     5
1  Cc1cc(-c2nnc(Nc3ccccc3)o2)nc2c(C(F)(F)F)cc(-c3ccccc3)cc12           L/kg                   1.8

Could you now consider this next compound?
Cc1cc(-c2nnc(N[C@@H]3CCC[C@H](O)C3)o2)nc2c(C(C)(C)C)cc(NCC(F)(F)F)cc12 yielded Vd of 2.4

====

- experiment-summary: Intrinsic clearance in rat liver microsomes at 3 uM after 1 hr in presence of NADPH and UDP-glucuronic acid
- Assay type: ADME
- test-parameters: read-out: CLH (converted)
Catalogue of compounds with associated CLint scaled at 3 µM
Give the value, in units of L/h/kg, as a plain number.

>>> df
                              sample_smiles  reported_measurement
0  Cc1cc(-c2nnc(N[C@H]3C[C@](O)(C(F)F)C3)o2)nc2c(C(C)(C)C)cc(NCC(F)(F)F)cc12                  0.22
1  Cc1cc(-c2nnc(N[C@@H]3CCC[C@H](O)C3)o2)nc2c(C(C)(C)C)cc(NCC(F)(F)F)cc12                  0.24

Next compound, CLint scaled at 3 µM to be filled in.
The recorded CLint scaled at 3 µM for entry Cc1cc(-c2nnc(Nc3ccccc3)o2)nc2c(C(F)(F)F)cc(-c3ccccc3)cc12 equals 0.7

====

- experiment-summary: Lipophilicity, log D of the compound at pH 7.4 by chromatographic analysis
- Type: physicochemical
- test-parameters: buffer
assay-readout: chromatographic logD
Could you respond with only the numeric value?

// known answers, use as guide
                              sample_smiles         assay_readout  reported_measurement
0  Cc1cc(-c2nnc(Nc3ccccc3)o2)nc2c(C(F)(F)F)cc(-c3ccccc3)cc12  chromatographic logD                   5.6
1  Cc1cc(-c2nnc(NCC3OCCO3)o2)nc2c(C(F)(F)F)cc(OCC(F)(F)F)cc12  chromatographic logD                   3.6
2  Cc1cc(-c2nnc(N[C@H]3C[C@@H](O)C3)o2)nc2c(C(C)(C)C)cc(OCC(F)(F)F)cc12  chromatographic logD                   3.4
3  Cc1cc(-c2nnc(N[C@H]3C[C@](O)(C(F)F)C3)o2)nc2c(C(C)(C)C)cc(NCC(F)(F)F)cc12  chromatographic logD                   3.7

Sure, the documented chromatographic logD for Cc1cc(-c2nnc(NCC3OCCO3)o2)nc2c(C(C)(C)C)cc(NCC(F)(F)F)cc12 is 3.6

====

- experiment-summary: Cytotoxicity against human HuH7 cells
- Format: cell-based, Huh-7
Attribute: CC50
Numeric answer only, unit µM assumed.

>>> print(df.to_string())
                              sample_smiles  reported_measurement
0  Cc1cc(-c2nnc(NCC3OCCO3)o2)nc2c(C(F)(F)F)cc(OCC(F)(F)F)cc12                  26.6
1  Cc1cc(-c2nnc(N[C@H]3C[C@@H](O)C3)o2)nc2c(C(C)(C)C)cc(OCC(F)(F)F)cc12                  10.8
2  Cc1cc(-c2nnc(NC3CCCC3)o2)nc2c(C(C)(C)C)cc(NCC(F)(F)F)cc12                  15.8

For this compound ( Cc1cc(-c2nnc(N[C@@H]3CCC[C@H](O)C3)o2)nc2c(C(C)(C)C)cc(NCC(F)(F)F)cc12 ), measured CC50 is 6.25

Noted for COc1cc(C(F)(F)F)c2nc(-c3nnc(NCC4OCCO4)o3)cc(C)c2c1 : its CC50 reads 50

====

- experiment-summary: Cytotoxicity against human HuH7 cells
- Format: cell-based, Huh-7
Recorded CC50 values for a group of compounds are listed next.
Field format: number, assumed µM, no unit text.

                              sample_smiles  assay_readout  reported_measurement
0  Cc1cc(-c2nnc(NCC3OCCO3)o2)nc2c(C(C)(C)C)cc(OCC(F)(F)F)cc12           CC50                  20.4
1  Cc1cc(-c2nnc(NCC3OCCO3)o2)nc2c(C(C)(C)C)cc(NCC(F)(F)F)cc12           CC50                    16

The reported CC50 of the compound Cc1cc(-c2nnc(N[C@H]3C[C@](O)(C(F)F)C3)o2)nc2c(C(C)(C)C)cc(OCC(F)(F)F)cc12 was 6.24

Record Cc1cc(-c2nnc(N[C@@H]3CCC[C@H](O)C3)o2)nc2c(C(C)(C)C)cc(OCC(F)(F)F)cc12 , field CC50: 20.9

====

A collection of compounds and their measured pEC50
- Tested on: Hepatitis C virus
- experiment-summary: Antiviral activity against HCV Con1 expressing NS4B H94N mutant infected in human HuH7 cells assessed as inhibition of viral RNA replication after 3 days by dual-glo luciferase reporter gene assay
- Type: functional, organism-based, Hepacivirus hominis
- test-parameters: isolate Con1, Huh-7, 72 h
Friendly reminder that pEC50 comes from taking -log10 of the concentration in mol/L.

Consider the reported pEC50 for these compounds:
In [3]: df
Out[3]:
                              sample_smiles  reported_measurement
0  Cc1cc(-c2nnc(N[C@@H]3CCC[C@H](O)C3)o2)nc2c(C(C)(C)C)cc(NCC(F)(F)F)cc12                  9.22
1  Cc1cc(-c2nnc(NCC3OCCO3)o2)nc2c(C(C)(C)C)cc(OCC(F)(F)F)cc12                  7.27
2  Cc1cc(-c2nnc(N[C@H]3C[C@](O)(C(F)F)C3)o2)nc2c(C(C)(C)C)cc(OCC(F)(F)F)cc12                  8.47
3  COc1cc(C(F)(F)F)c2nc(-c3nnc(NCC4OCCO4)o3)cc(C)c2c1                  6.14

What the record says about Cc1cc(-c2nnc(N[C@H]3C[C@](O)(C(F)F)C3)o2)nc2c(C(C)(C)C)cc(NCC(F)(F)F)cc12 : pEC50 is 9.13
